assayed-target: T1, GST-human NOGO-A56 (human, UniProt Q9NQC3 586-785)
T1 construct: GST-tagged fusion expressed in E. coli BL21 from pGEX-6P1; also called hNOGO; human NOGO 5+6 GST; not shown: Glutathione S-transferase tag encoded by vector pGEX-6P1 (N-terminal, with vector linker)
T1 sequence: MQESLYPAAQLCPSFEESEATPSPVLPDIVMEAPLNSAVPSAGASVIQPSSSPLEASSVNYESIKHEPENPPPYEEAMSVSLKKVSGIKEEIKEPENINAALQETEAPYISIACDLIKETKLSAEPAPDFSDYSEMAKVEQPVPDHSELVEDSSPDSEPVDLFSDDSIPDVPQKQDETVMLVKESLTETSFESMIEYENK
procedure-details: SPR (Biacore), GST-human NOGO-A56 immobilised, purified antibody as analyte; single experiment
measurement-name: kon (M⁻¹ s⁻¹)
Answer with a number only, understood to be in M⁻¹ s⁻¹.

Give its kon value. Item: HcLc (antibody, human IgG1, kappa, V domains shown, also called chimera of 2A10; 2A10 chimeric antibody) VH: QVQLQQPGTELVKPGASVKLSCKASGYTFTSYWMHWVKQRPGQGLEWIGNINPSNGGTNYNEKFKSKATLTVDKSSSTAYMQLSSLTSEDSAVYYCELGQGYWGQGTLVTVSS VL: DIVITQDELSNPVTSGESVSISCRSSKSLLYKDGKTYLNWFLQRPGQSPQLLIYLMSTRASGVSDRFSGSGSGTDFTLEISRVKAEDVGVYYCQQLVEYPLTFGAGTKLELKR 2.32e+06
